Tested on: Bacillus subtilis
Assay: Bactericidal activity against Bacillus subtilis MTCC 121 after 24 hrs by serial dilution method
Format: functional
Conditions: MTCC 121, 24 h
Outcome Measure: MBC (µg/mL)

• Cc1ccc(-c2nn(-c3ccccc3)cc2C2c3c(n(C)c(=O)n(C)c3=O)N=CN2c2ccc(Cl)cc2)cc1 (stereo not drawn) = 7.8
• COc1ccc(N2C=Nc3c(c(=O)n(C)c(=O)n3C)C2c2cn(-c3ccccc3)nc2-c2cccs2)cc1 (stereo not drawn) = 31.2
• COc1ccc(N2C=Nc3c(c(=O)n(C)c(=O)n3C)C2c2cn(-c3ccccc3)nc2-c2ccc(Cl)cc2)cc1 (stereo not drawn) = 31.2
• COc1ccc(N2C=Nc3c(c(=O)n(C)c(=O)n3C)C2c2cn(-c3ccccc3)nc2-c2ccc([N+](=O)[O-])cc2)cc1 (stereo not drawn) = 31.2
• O=C(O)c1cn(C2CC2)c2cc(N3CCNCC3)c(F)cc2c1=O [CIPROFLOXACIN] = 0.9
• COc1ccc(N2C=Nc3c(c(=O)n(C)c(=O)n3C)C2c2cn(-c3ccccc3)nc2-c2ccc(C)cc2)cc1 (stereo not drawn) = 62.5
• Cn1c2c(c(=O)n(C)c1=O)C(c1cn(-c3ccccc3)nc1-c1ccccc1)N(c1ccc(Cl)cc1)C=N2 (stereo not drawn) = 62.5
• Cn1c2c(c(=O)n(C)c1=O)C(c1cn(-c3ccccc3)nc1-c1cccs1)N(c1ccc(Cl)cc1)C=N2 (stereo not drawn) = 31.2

* * *

Test system: Staphylococcus aureus
Assay: Antibacterial activity against Staphylococcus aureus MTCC 96 after 24 hrs by well diffusion method
Type: functional
Conditions: MTCC 96, 24 h
Parameter MIC: see the listing below.
Outcome Measure: MIC

• Cn1c2c(c(=O)n(C)c1=O)C(c1cn(-c3ccccc3)nc1-c1ccc(Cl)cc1)N(c1ccccc1)C=N2 (centres undefined) = > 125 µg/mL
• Cc1ccc(-c2nn(-c3ccccc3)cc2C2c3c(n(C)c(=O)n(C)c3=O)N=CN2c2ccc(C)cc2)cc1 (centres undefined) = 7.8 µg/mL
• Cn1c2c(c(=O)n(C)c1=O)C(c1cn(-c3ccccc3)nc1-c1ccc([N+](=O)[O-])cc1)N(c1cccc([N+](=O)[O-])c1)C=N2 (centres undefined) = > 125 µg/mL
• COc1ccc(N2C=Nc3c(c(=O)n(C)c(=O)n3C)C2c2cn(-c3ccccc3)nc2-c2ccccc2)cc1 (centres undefined) = > 125 µg/mL

* * *

The following compounds are listed with their measured MBC values.
Tested on: Bacillus subtilis
Experiment: Bactericidal activity against Bacillus subtilis MTCC 121 after 24 hrs by serial dilution method
Format: functional
Conditions: MTCC 121, 24 h
Outcome Measure: MBC (µg/mL)

- Cc1ccc(N2C=Nc3c(c(=O)n(C)c(=O)n3C)C2c2cn(-c3ccccc3)nc2-c2cccs2)cc1 (stereo not given): 31.2
- Cc1ccc(N2C=Nc3c(c(=O)n(C)c(=O)n3C)C2c2cn(-c3ccccc3)nc2-c2ccc([N+](=O)[O-])cc2)cc1 (stereo not given): 31.2
- Cc1ccc(-c2nn(-c3ccccc3)cc2C2c3c(n(C)c(=O)n(C)c3=O)N=CN2c2ccc(C)cc2)cc1 (stereo not given): 31.2

* * *

Tested on: Staphylococcus aureus
Assay: Antibacterial activity against Staphylococcus aureus MTCC 96 after 24 hrs by well diffusion method
Assay type: functional
Conditions: MTCC 96, 24 h
Outcome Measure: MIC

* Cc1ccc(N2C=Nc3c(c(=O)n(C)c(=O)n3C)C2c2cn(-c3ccccc3)nc2-c2ccc(Cl)cc2)cc1 (stereo not drawn) | > 125 µg/mL
* O=C(O)c1cn(C2CC2)c2cc(N3CCNCC3)c(F)cc2c1=O | 0.9 µg/mL
* Cn1c2c(c(=O)n(C)c1=O)C(c1cn(-c3ccccc3)nc1-c1ccccc1)N(c1ccc(Cl)cc1)C=N2 (stereo not drawn) | > 125 µg/mL
* Cn1c2c(c(=O)n(C)c1=O)C(c1cn(-c3ccccc3)nc1-c1ccc(Cl)cc1)N(c1ccc(Cl)cc1)C=N2 (stereo not drawn) | > 125 µg/mL
* COc1ccc(N2C=Nc3c(c(=O)n(C)c(=O)n3C)C2c2cn(-c3ccccc3)nc2-c2cccs2)cc1 (stereo not drawn) | 15.6 µg/mL
* COc1ccc(N2C=Nc3c(c(=O)n(C)c(=O)n3C)C2c2cn(-c3ccccc3)nc2-c2ccc(Cl)cc2)cc1 (stereo not drawn) | 15.6 µg/mL
* Cn1c2c(c(=O)n(C)c1=O)C(c1cn(-c3ccccc3)nc1-c1cccs1)N(c1ccc(Cl)cc1)C=N2 (stereo not drawn) | 31.2 µg/mL
* Cc1ccc(N2C=Nc3c(c(=O)n(C)c(=O)n3C)C2c2cn(-c3ccccc3)nc2-c2ccccc2)cc1 (stereo not drawn) | > 125 µg/mL
